assay_comment: gradient 5% acetonitrile 3 min, to 50% in 2 min, to 85% in 15 min, held 3 min, 100 µL/min
measurement_parameters: column: Zorbax Extend-C18 2.1 x 50 mm; eluents: water / acetonitrile, 0.1% formic acid
I'd appreciate it if you marked entries MET when RP-LC retention time is lower than 900 s and NOT MET when it is not.

{"columns": ["molecule", "group"],
 "data": [
  ["CC[C@@H]1C(=O)N(C)c2cnc(Nc3ccc(C(=O)NC4CCN(C)CC4)cc3OC)nc2N1C1CCCC1", "MET"],
  ["O=c1ccn(-c2ccc(Cl)cc2)nc1-c1nc(-c2ccc(Cl)cc2)no1", "NOT MET"],
  ["CCOc1ccc(NC(=O)Nc2nccn(-c3ccc(OC)cc3)c2=O)cc1", "NOT MET"],
  ["COc1ccc(Cl)cc1NC(=O)N1CCN(c2ccc3nncn3n2)CC1", "MET"],
  ["O=C(NCc1cc(F)cc(F)c1)C1CCN(c2ccc(SCc3ccccc3)nn2)CC1", "MET"],
  ["CCCS(=O)(=O)N1CCC2(CC1)CC(N1CCN(c3ccccc3)CC1)CCO2 (centres undefined)", "MET"],
  ["Cc1cc(C)cc(NC(=O)Cc2ccc(OC(C)(C)C(=O)O)cc2)c1", "NOT MET"],
  ["Cc1cccc(-c2nc(CNC(=O)CCC(F)(F)F)no2)c1", "MET"],
  ["O=C(c1csc(-c2cnccn2)n1)N1CCN(c2ccccc2Cl)CC1", "MET"]
]}

====

assay_comment: gradient 5% acetonitrile 3 min, to 50% in 2 min, to 85% in 15 min, held 3 min, 100 µL/min
measurement_parameters: column: Zorbax Extend-C18 2.1 x 50 mm; eluents: water / acetonitrile, 0.1% formic acid

{"columns": ["molecule", "RP-LC retention time"],
 "data": [
  ["COCCN1C(=O)[C@H]2CN(Cc3ccccc3C(F)(F)F)C[C@H]2C1=O", "849 s"],
  ["CC(C)NC(=O)N1[C@H]2CC[C@@H]1c1cnc(-c3ccc(F)cc3)nc1C2", "839 s"],
  ["CC1CCCCN1S(=O)(=O)c1cc(-c2nnc(C3CC3)o2)co1 (centres undefined)", "896 s"],
  ["Fc1cc(F)cc(-c2nnc(Cc3nc(-c4ccncc4)no3)o2)c1", "780 s"],
  ["COc1cccc(NC(=O)Cn2c(=O)c3cc(-c4ccco4)nn3c3ncccc32)c1", "807 s"],
  ["CCOCCCNC(=O)c1ccc2nc(CCc3ccc(NC(C)=O)cc3)[nH]c2c1", "589 s"],
  ["COC(=O)c1nc(NC(=O)Cn2nc3c(cc2=O)CCCC3)sc1C(C)C", "805 s"],
  ["O=C(NCCn1c(=O)n(Cc2ccc(F)cc2)c2cccnc21)C1CCCC1", "782 s"],
  ["Cc1cc(C)c(S(=O)(=O)N2CCC(C(=O)NCc3csc(-c4cccs4)n3)CC2)cc1C", "1050 s"]
]}

====

assay_comment: gradient 5% acetonitrile 3 min, to 50% in 2 min, to 85% in 15 min, held 3 min, 100 µL/min
measurement_parameters: column: Zorbax Extend-C18 2.1 x 50 mm; eluents: water / acetonitrile, 0.1% formic acid
measured_attribute: RP-LC retention time (s)

{"columns": ["molecule", "measured_attribute", "experimental_result"],
 "data": [
  ["Cc1c(C(=O)C(=O)N2CCc3ccccc3C2)c2ccccc2n1C", "RP-LC retention time", 913],
  ["Cc1cc(=O)n(CC(=O)Nc2c(C)cccc2C)c(N2CCOCC2)n1", "RP-LC retention time", 612],
  ["Cc1ccccc1N1CCN(C(=O)c2ccc3c(c2)CC(=O)N3C)CC1", "RP-LC retention time", 839],
  ["COc1ccc(-c2ncccc2CNS(=O)(=O)c2ccc(C#N)cc2)cc1", "RP-LC retention time", 673],
  ["Fc1ccc(OCc2nnc3sc(-c4ccccc4F)nn23)cc1", "RP-LC retention time", 940],
  ["COc1ccc(-c2nc(N3CCCCC3)ncc2C(=O)O)cc1", "RP-LC retention time", 923],
  ["Cc1c(S(=O)(=O)N2c3ccccc3CC2C)cc(C(=O)N2CCC(C)CC2)n1C (stereo not given)", "RP-LC retention time", 723],
  ["O=S(=O)(c1ccc2nc(N3CCN(c4ccccc4F)CC3)ccc2c1)N1CCOCC1", "RP-LC retention time", 939],
  ["CCc1ccc(CNC(=O)c2c(C)oc3nc(C)nc(N4CCCC4)c23)cc1", "RP-LC retention time", 795],
  ["O=C(CC(c1cccs1)n1cccc1)N1CCN(c2ccccn2)CC1 (stereo not given)", "RP-LC retention time", 659],
  ["CC1CCN(C(=O)C2=CN(c3ccccc3)c3cc(Cl)ccc3S2(=O)=O)CC1", "RP-LC retention time", 999],
  ["CCC(C)NC(=O)C1CCCN(C(=O)c2cc(-c3ccccn3)n[nH]2)C1 (stereo not given)", "RP-LC retention time", 611],
  ["Cc1cc(C)n2nc(CN(C(=O)c3cccs3)c3ccc(F)cc3)nc2n1", "RP-LC retention time", 779],
  ["CCn1cc(S(=O)(=O)N2CC(Cn3c(C)cnc3-c3cccnc3)C2)cn1", "RP-LC retention time", 576],
  ["O=c1c2scc(-c3ccc(Cl)cc3)c2ncn1Cc1cc(=O)n2ccccc2n1", "RP-LC retention time", 878],
  ["COc1cc(C)c(C)cc1S(=O)(=O)NCC1CCN(C(=O)Oc2ccccc2)CC1", "RP-LC retention time", 964],
  ["O=C(CSc1ccc(N2CCCC(C(=O)NC3CC3)C2)nn1)Nc1cccc(C(F)(F)F)c1 (stereo not given)", "RP-LC retention time", 687],
  ["COc1ccc(CNC(=O)CN2C(=O)CC(c3cccs3)=Nc3ccccc32)cc1", "RP-LC retention time", 863],
  ["COc1cccc(CNC(=O)C2CCN(c3nnc4cccc(C)n34)CC2)c1", "RP-LC retention time", 642],
  ["O=S(=O)(Nc1cccn2ncnc12)c1ccccc1Cl", "RP-LC retention time", 742]
]}

====

assay_comment: gradient 5% acetonitrile 3 min, to 50% in 2 min, to 85% in 15 min, held 3 min, 100 µL/min
measurement_parameters: column: Zorbax Extend-C18 2.1 x 50 mm; eluents: water / acetonitrile, 0.1% formic acid
# maps each entry to its RP-LC retention time

{"columns": ["molecule", "RP-LC retention time / s"],
 "data": [
  ["CCOCC(=O)N1CCCN(C2=NS(=O)(=O)C(c3ccc(Cl)cc3)=C2C)CC1", 761],
  ["O=C(NCc1nc(-c2ccccc2)no1)C1CCN(Cc2nc3ccccc3[nH]2)CC1", 581],
  ["Cc1ccc(-n2ncc3c(NCCN(C)C)ncnc32)cc1C", 648],
  ["O=C(NC(Cc1ccccc1)C(=O)N1CCN(c2ccccn2)CC1)c1cccc(Cl)c1 (centres undefined)", 698],
  ["Cc1cc(C)cc(NC(=O)Cc2nc(-c3ccccn3)n[nH]2)c1", 669],
  ["Cc1ccc(NC(=O)NC2CCN(c3ccc(C)c(C)c3)C2=O)c(C)c1 (centres undefined)", 949],
  ["COc1ccc(OCC(=O)N(C)CCc2noc(C3CCCCC3)n2)cc1", 912],
  ["CN(C)S(=O)(=O)c1ccc(-c2nnc(C(=O)NCc3ccc(F)cc3)o2)cc1", 844],
  ["Cc1ccc2c(=O)c(C(=O)N3CCCC3)cn(CC(=O)Nc3ccc(F)cc3F)c2n1", 692],
  ["COc1cc(OC)cc(-c2nc(-c3cccc(-c4ccnn4C)c3)no2)c1", 1160],
  ["CCc1nc2cc(-c3noc(Cc4cccc(F)c4)n3)ccc2o1", 1050],
  ["O=C(c1nnn2c1COC(c1ccc(Cl)cc1)C2)N1CCSCC1 (centres undefined)", 949],
  ["O=C(NCCc1c[nH]c2ccccc12)c1cc(S(=O)(=O)N2CCSCC2)ccc1Cl", 925],
  ["COC(=O)c1ccc(CN2C(=O)C(O)(c3ccccc3)c3ccccc32)cc1 (centres undefined)", 899],
  ["CCOCCCNC(=O)Cn1c(=O)c2cccn2c2ccc(F)cc21", 712],
  ["COc1cc(-c2cccc(Cl)c2)nc2ccc(NC(=O)Cc3cccs3)cc12", 843],
  ["COC(=O)c1cc(OCC(=O)Nc2ccc(OC)cc2)c2cc(OC)ccc2n1", 775],
  ["Cc1ccc(NS(=O)(=O)c2cc3c(s2)CCN(C(=O)C2CCC2)C3)cc1F", 911],
  ["NS(=O)(=O)c1ccc(NC(=O)NC2CC(=O)N(c3ccc(Cl)cc3)C2)cc1 (centres undefined)", 657],
  ["Cc1nn(-c2nc(-c3ccc(Cl)cc3)cs2)c(C)c1CC(=O)Nc1ccccc1F", 1260],
  ["CCN1CCCC1CNC(=O)c1nnc(-c2ccc(S(=O)(=O)N3CCCCC3)cc2)o1 (centres undefined)", 645],
  ["O=C(Nc1cccc(OCc2nnc(-c3ccc(F)cc3)o2)c1)c1ccsc1", 920],
  ["CCN1CCN(c2c(S(=O)(=O)c3ccccc3)cnc3cc(OC)c(OC)cc23)CC1", 623],
  ["CCn1cc(CN2CCC(C(=O)NCc3ccc(OC)cc3OC)CC2)c2cc(OC)ccc21", 716],
  ["CC(=O)c1cccc(NC(=O)c2csc3c2CCCC3)c1", 996],
  ["CCS(=O)(=O)c1nc2ccc(NS(=O)(=O)c3cc(F)ccc3F)cc2s1", 854],
  ["COc1ccc(OC)c(-c2csc(-c3nnn(-c4ccc(C)c(C)c4)c3N)n2)c1", 1230],
  ["Cc1c(N2CCC(C(=O)N3CCN(c4ccccn4)CC3)CC2)c(=O)n(C)c(=O)n1-c1ccccc1", 618],
  ["CCOc1cccc(CNC(=O)C2CCc3nc(N4CCOCC4)ncc3C2)c1 (centres undefined)", 743],
  ["CS(=O)(=O)N1CCC(C(=O)Nc2nnc(SCc3ccccn3)s2)CC1", 554],
  ["O=C(NCc1ccco1)c1ccc2ccnc(N3CCN(c4ccc(Cl)cc4)CC3)c2c1", 858],
  ["COCCCNC(=O)Cn1c(=O)c(S(=O)(=O)c2ccccc2)cc2cc(C)ccc21", 743],
  ["CC(NC(=O)CCNc1c(-c2cccc(F)c2)nc2cnccn12)c1cccs1 (centres undefined)", 728],
  ["Brc1cn2c(Nc3ccc4c(c3)OCCO4)c(-c3ccccc3)nc2cn1", 916],
  ["COc1ccc2[nH]c(=O)c(CCC(=O)NCCCOC(C)C)cc2c1", 649],
  ["COCCC1CCN(C(=O)c2nn(C)c3ccccc23)CC1", 771],
  ["CCNc1cc(-n2cccn2)ncn1", 666],
  ["CCCN1C(=O)c2cc(S(=O)(=O)NCc3ccccc3)ccc2Oc2cccnc21", 1050],
  ["COCCCNC(=O)C1c2cc(OC)c(OC)cc2C(=O)N(C)C1c1cccs1 (centres undefined)", 676]
]}

Source of measurements: the METLIN SMRT retention time set (Domingo-Almenara et al. 2019)
